# systemTested: thrombin (factor IIa) (Homo sapiens, UniProt P00734)
# Construct: The prothrombinase complex converts prothrombin (FII) to thrombin (FIIa); purchased Haematologic Technologies (Essex Junction, VT); host or cells: human plasma
# methodSummary: Inhibition of thrombin, chromogenic substrate hydrolysis assay
# Assay type: biochemical
# settings: thrombin over FXIIa
assayReadout: selectivity index (IC50 enzyme/IC50 FXIIa)

[1] COC(=O)c1nc(N)n(C(=O)c2ccc(F)cc2)n1
[2] COC(=O)c1nc(N)n(C(=O)c2ccccc2Br)n1
[3] COC(=O)c1nc(N)n(C(=O)c2ccccc2)n1
[4] COC(=O)c1nc(N)n(C(=O)c2cc(OC)c(OC)c(OC)c2)n1
Prompt: // ranking: key=selectivity index (IC50 enzyme/IC50 FXIIa), reverse=True State the ranking by listing the labels in the requested order.
Completion: 1, 2, 4, 3
(1: 9.38, 2: 1.13, 4: 0.42, 3: 0.23)
